# Test target: human C5 protein (human, UniProt P01031 19-673; P01031 678-1676)
# Assay details: cell-based or functional assay
Positions of bridges follow the written chain, without caps; N, C: chain ends. Non-standard residues stand in square brackets, D forms with d. Primed or numbered codes have the meaning given here. No end group written: not given here. mXylyl(5) = bridging moiety between the two residues (meta-xylyl); mXylyl″ = bridging moiety between the two marked residues; Trp(7-aza) = N[C@@H](Cc1c[nH]c2ncccc12)C(=O)O; Phg = N[C@H](C(=O)O)c1ccccc1; Tle = CC(C)(C)[C@H](N)C(=O)O; Lys‑C12 = N-ε-lauryl lysine; Nva = CCC[C@H](N)C(=O)O
Endpoint name: Avg. IC50, human hemolysis assay (complete human sera) (nM)
Numbers only, in nM.

Fill in Avg. IC50, human hemolysis assay (complete human sera) for record Ac-CAERFCD[Tle]Y[Trp(7-aza)]EYP[Phg][Lys‑C12]-NH2 (linker 1-6 via mXylyl″) [R3164]
36

Kindly consider the entry below.
Input MCVERFCD[Tle]Y[Trp(7-aza)]EYP[Phg][Nva]-NH2 (linker 2-7 via mXylyl(5)) [R3057] , output reported Avg. IC50, human hemolysis assay (complete human sera).
12.4
